Target: ALK enzyme (Homo sapiens, UniProt Q9UM73)
Construct: purchased Invitrogen PV4185
Sequence (Q9UM73 19-1620): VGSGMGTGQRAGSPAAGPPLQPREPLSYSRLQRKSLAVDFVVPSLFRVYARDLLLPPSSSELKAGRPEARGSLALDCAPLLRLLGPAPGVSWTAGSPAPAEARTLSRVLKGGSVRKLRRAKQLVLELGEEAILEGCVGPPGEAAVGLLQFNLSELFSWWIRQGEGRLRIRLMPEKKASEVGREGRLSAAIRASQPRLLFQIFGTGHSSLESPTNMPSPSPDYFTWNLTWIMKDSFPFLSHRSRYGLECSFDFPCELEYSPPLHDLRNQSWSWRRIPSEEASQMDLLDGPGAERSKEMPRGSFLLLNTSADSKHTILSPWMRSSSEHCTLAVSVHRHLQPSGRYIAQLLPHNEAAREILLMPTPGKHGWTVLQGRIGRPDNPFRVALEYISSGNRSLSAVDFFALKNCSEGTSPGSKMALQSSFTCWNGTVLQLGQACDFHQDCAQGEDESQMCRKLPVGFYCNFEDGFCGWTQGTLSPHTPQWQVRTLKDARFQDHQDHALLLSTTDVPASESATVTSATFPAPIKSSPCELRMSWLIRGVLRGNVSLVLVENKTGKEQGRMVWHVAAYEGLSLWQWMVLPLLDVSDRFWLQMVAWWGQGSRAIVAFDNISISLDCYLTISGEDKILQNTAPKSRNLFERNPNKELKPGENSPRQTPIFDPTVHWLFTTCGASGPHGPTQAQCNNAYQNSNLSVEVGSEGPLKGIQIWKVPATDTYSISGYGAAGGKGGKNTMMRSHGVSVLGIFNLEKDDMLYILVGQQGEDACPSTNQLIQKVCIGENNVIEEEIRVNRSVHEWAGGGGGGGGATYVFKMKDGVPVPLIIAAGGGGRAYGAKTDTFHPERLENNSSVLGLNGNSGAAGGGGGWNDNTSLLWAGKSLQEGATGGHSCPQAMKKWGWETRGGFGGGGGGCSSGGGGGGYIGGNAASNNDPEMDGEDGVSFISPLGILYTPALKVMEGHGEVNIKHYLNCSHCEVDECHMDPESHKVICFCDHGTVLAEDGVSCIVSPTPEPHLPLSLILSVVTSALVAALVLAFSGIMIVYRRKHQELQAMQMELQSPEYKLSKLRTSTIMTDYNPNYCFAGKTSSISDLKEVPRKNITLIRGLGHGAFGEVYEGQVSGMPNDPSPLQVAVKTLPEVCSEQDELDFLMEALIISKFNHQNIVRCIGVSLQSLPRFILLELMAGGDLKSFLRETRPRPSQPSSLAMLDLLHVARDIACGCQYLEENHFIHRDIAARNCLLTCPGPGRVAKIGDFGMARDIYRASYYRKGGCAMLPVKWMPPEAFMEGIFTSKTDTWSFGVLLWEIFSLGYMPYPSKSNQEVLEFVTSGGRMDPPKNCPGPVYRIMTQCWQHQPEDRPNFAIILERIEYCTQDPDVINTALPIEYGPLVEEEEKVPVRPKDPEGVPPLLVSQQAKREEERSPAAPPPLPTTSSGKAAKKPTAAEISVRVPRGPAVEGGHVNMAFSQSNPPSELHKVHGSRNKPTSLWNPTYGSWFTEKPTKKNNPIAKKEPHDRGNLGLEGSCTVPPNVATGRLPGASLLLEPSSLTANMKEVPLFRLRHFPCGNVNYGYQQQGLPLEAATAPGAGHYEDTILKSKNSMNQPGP
Experiment: ALK enzymatic activity assay 1
Type: biochemical
Conditions: purified ALK enzyme 10 nM, ATP 25 μM (Km)
Protocol: ALK Enzymatic Activity Assay 1 Compounds were added at a final concentration of 1% DMSO in half-log dilutions, starting at 20 μM final concentration. The reactions were initiated by the addition of 10 μL of peptide/ATP mix to 10 μL enzyme and 2 μL of compound in 384-well plate. […] The relative peak heights of substrate and product were measured and ratios were calculated using HTS Well Analyzer Software version 5.2.43 from the manufacturer.
pIC50: −log10 of the molar value.
MEASURED_ATTRIBUTE: pIC50

[[record]]
compound = "CC(Oc1cc(-c2cn(C)cn2)cnc1N)c1cc(F)ccc1Cl (stereo not shown) [Example 23]"
recorded_value = 6.57


###

Ki listing for selected molecules.
biological target: human recombinant wild-type ALK kinase domain (amino acids 1093-1411) (Homo sapiens, UniProt Q9UM73); construct: ALK kinase domain (amino acids 1093-1411); assay: ALK enzyme assay 2 (microfluidic mobility shift assay);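 also: kinase reaction run 1 h at room temperature, conversion quantified by electrophoretic separation of fluorescent peptide substrate from phosphorylated product, about 15-20% turnover without inhibitor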
Where a name gives a salt, the structure may show the parent alone.
MEASURED_ATTRIBUTE: Ki (nM)

[[record]]
molecule = "C[C@@H](Oc1cc(-c2cnc(CO)n2C)cnc1N)c1cc(F)ccc1-n1nccn1 [Example 97]"
relational_operator = "="
recorded_value = 0.327

[[record]]
molecule = "C[C@@H](Oc1cc(-c2cnc3c(c2)C(C)(C)C(=O)N3)cnc1N)c1cc(F)ccc1-n1nccn1 [Example 75]"
relational_operator = "="
recorded_value = 0.341

[[record]]
molecule = "C[C@@H](Oc1cc(-c2ccc(C(C)(C)O)c(S(C)(=O)=O)c2)cnc1N)c1cc(F)ccc1-n1nccn1 [Example 111]"
relational_operator = "<"
recorded_value = 0.2

[[record]]
molecule = "C[C@@H](Oc1cc(-c2c[nH]nc2C#N)cnc1N)c1cc(F)ccc1-n1nccn1 [Example 116]"
relational_operator = "<"
recorded_value = 0.2

[[record]]
molecule = "COc1ncc(F)cc1C(C)Oc1cc(-c2ccnn2C)cnc1N (stereo not drawn) [Example 33, monohydrochloride]"
relational_operator = "="
recorded_value = 4.8

[[record]]
molecule = "CNC(=O)c1ncc(-c2cnc(N)c(O[C@H](C)c3cc(F)ccc3-n3nccn3)c2)cn1 [Example 92]"
relational_operator = "="
recorded_value = 7.2

[[record]]
molecule = "COc1ncc(F)cc1[C@@H](C)Oc1cc(-c2ccnn2C)cnc1N [Example 34]"
relational_operator = "="
recorded_value = 3.8

[[record]]
molecule = "CNS(=O)(=O)c1ccc(OC)c(-c2cnc(N)c(O[C@H](C)c3cc(F)ccc3-n3nccn3)c2)c1 [Example 143]"
relational_operator = "<"
recorded_value = 0.2

[[record]]
molecule = "C[C@@H](Oc1cc(-c2ccnc(N3CCN(C)CC3)c2F)cnc1N)c1cc(F)ccc1-n1nccn1 [Example 132]"
relational_operator = "<"
recorded_value = 0.2

[[record]]
molecule = "C[C@@H](Oc1nc(-c2ccc(C(N)=O)nc2)cnc1N)c1cc(F)ccc1-n1nccn1 [Example 64]"
relational_operator = "="
recorded_value = 2.4

[[record]]
molecule = "COc1ccc(F)cc1C(C)Oc1cc(-c2c(CO)cnn2C)cnc1N (stereo not drawn) [Example 18]"
relational_operator = "="
recorded_value = 8.1

[[record]]
molecule = "C[C@@H](Oc1cc(-c2ccnc(N3CCOCC3)c2F)cnc1N)c1cc(F)ccc1-n1nccn1 [Example 131]"
relational_operator = "="
recorded_value = 0.638

[[record]]
molecule = "C[C@@H](Oc1cc(-c2cnn([C@H]3CCCNC3)c2)cnc1N)c1cc(F)ccc1-n1nccn1 [Example 98]"
relational_operator = "<"
recorded_value = 0.2

[[record]]
molecule = "CC(Oc1cc(-c2ccnn2C)cnc1N)c1cc(F)cc2scnc12 (stereo not drawn) [Example 42]"
relational_operator = "="
recorded_value = 2.05

[[record]]
molecule = "C[C@@H](Oc1cc(-c2cnn(C3CCNCC3)c2)cnc1N)c1cc(F)ccc1-n1nccn1 [Example 80]"
relational_operator = "<"
recorded_value = 0.2

[[record]]
molecule = "Cc1nc(C(C)O)sc1-c1cnc(N)c(O[C@H](C)c2cc(F)ccc2-n2nccn2)c1 (stereo partly drawn) [Example 96]"
relational_operator = "<"
recorded_value = 0.2

[[record]]
molecule = "COc1ccc(F)cc1C(C)Oc1cc(-c2nsc(S(C)(=O)=O)n2)cnc1N (stereo not drawn) [Example 133]"
relational_operator = "="
recorded_value = 1.28

[[record]]
molecule = "CCc1nc(CS(C)(=O)=O)sc1-c1cnc(N)c(O[C@H](C)c2cc(F)ccc2-n2nccn2)c1 [Example 145]"
relational_operator = "<"
recorded_value = 0.2

[[record]]
molecule = "COc1ccc(F)cc1C(C)Oc1cc(-c2cnn(C)c2CO)cnc1N (stereo not drawn) [Example 12]"
relational_operator = "="
recorded_value = 2.1

[[record]]
molecule = "COc1ccc(F)cc1[C@@H](C)Oc1cc(-c2cccnc2CO)cnc1N [Example 27]"
relational_operator = "="
recorded_value = 3.1

[[record]]
molecule = "COc1ccc(F)cc1C(C)Oc1cc(-c2ncsc2CO)cnc1N (stereo not drawn) [Example 13]"
relational_operator = "="
recorded_value = 5.5

[[record]]
molecule = "Cc1nc(C#N)c(-c2cnc(N)c(O[C@H](C)c3cc(F)ccc3-n3nccn3)c2)o1 [Example 120]"
relational_operator = "="
recorded_value = 2.14

[[record]]
molecule = "COc1ncc(F)cc1C(C)Oc1cc(-c2c[nH]nc2C)cnc1N (stereo not drawn) [Example 41]"
relational_operator = "="
recorded_value = 0.922

[[record]]
molecule = "COc1ccc(F)cc1C(C)Oc1cc(-c2c(C)nn(C)c2C)cnc1N (stereo not drawn) [Example 7]"
relational_operator = "="
recorded_value = 0.536

[[record]]
molecule = "COc1ccc(F)cc1C(C)Oc1cc(-c2c(OC)cnn2C)cnc1N (stereo not drawn) [Example 16]"
relational_operator = "="
recorded_value = 1.3

[[record]]
molecule = "CC(Oc1cc(-c2ccnn2C)nnc1N)c1cc(F)ccc1-n1cccn1 (stereo not drawn) [Example 55]"
relational_operator = "="
recorded_value = 43

[[record]]
molecule = "C[C@@H](Oc1nc(-c2cccc(S(C)(=O)=O)c2)cnc1N)c1cc(F)ccc1-n1nccn1 [Example 72]"
relational_operator = "="
recorded_value = 0.24

[[record]]
molecule = "CNC(=O)c1nc(C)c(-c2cnc(N)c(O[C@H](C)c3cc(F)ccc3-n3nccn3)c2)s1 [Example 90]"
relational_operator = "="
recorded_value = 1.2

[[record]]
molecule = "CC(Oc1nc(-c2cn(C)cn2)cnc1N)c1cc(F)ccc1Cl (stereo not drawn) [Example 59]"
relational_operator = "="
recorded_value = 13

[[record]]
molecule = "COc1ccc(F)cc1C(C)Oc1cc(-c2cnnn2CCO)cnc1N (stereo not drawn) [Example 2]"
relational_operator = "="
recorded_value = 220

[[record]]
molecule = "C[C@@H](Oc1cc(-c2cnn([C@@H]3C[C@H]4CC[C@@H](C3)N4)c2C#N)cnc1N)c1cc(F)ccc1-n1nccn1 [Example 141]"
relational_operator = "<"
recorded_value = 0.2

[[record]]
molecule = "COc1ccc(F)cc1C(C)Oc1cc(-c2ccnn2C)cnc1N (stereo not drawn) [Example 43, monohydrochloride]"
relational_operator = "<"
recorded_value = 0.249

[[record]]
molecule = "C[C@@H](Oc1cc(-c2ccc(O)nc2)cnc1N)c1cc(F)ccc1-n1nccn1 [Example 121]"
relational_operator = "="
recorded_value = 1.04

